SYSTEM_NAME: T1, human IL-36R (human, UniProt Q9HB29 20-575)
T1 sequence (looked up): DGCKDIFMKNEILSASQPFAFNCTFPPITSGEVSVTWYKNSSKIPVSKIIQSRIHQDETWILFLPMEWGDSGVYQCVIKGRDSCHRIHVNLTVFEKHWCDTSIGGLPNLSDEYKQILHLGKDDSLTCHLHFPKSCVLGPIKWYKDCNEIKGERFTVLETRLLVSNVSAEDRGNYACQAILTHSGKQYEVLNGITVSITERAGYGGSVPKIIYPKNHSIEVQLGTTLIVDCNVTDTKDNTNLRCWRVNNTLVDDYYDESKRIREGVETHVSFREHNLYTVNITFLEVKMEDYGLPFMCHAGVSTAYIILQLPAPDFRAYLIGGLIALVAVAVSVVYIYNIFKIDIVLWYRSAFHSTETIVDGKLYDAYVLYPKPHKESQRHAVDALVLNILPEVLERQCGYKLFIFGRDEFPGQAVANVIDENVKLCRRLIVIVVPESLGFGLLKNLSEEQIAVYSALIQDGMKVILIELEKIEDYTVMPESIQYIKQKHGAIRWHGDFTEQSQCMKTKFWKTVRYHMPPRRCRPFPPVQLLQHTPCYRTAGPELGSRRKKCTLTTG
PROCEDURE_SUMMARY: cell-based or functional assay
ENDPOINT_NAME: IC50, GM-CSF release under IL-36 β stimulation (NCI/ADR-RES cells) (ng/mL)
Answers are plain numbers, in ng/mL.

humanized anti-IL-36R antibody 900513 (antibody, V domains shown, IgG1; built from the chimeric expression plasmids (human IgG1 L234A/L235A, human kappa)) VH: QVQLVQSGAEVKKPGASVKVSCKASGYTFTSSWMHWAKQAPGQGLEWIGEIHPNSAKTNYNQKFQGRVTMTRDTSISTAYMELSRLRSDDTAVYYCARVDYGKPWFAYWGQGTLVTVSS VL: EIVLTQSPGTLSLSPGERATLSCSASSSVSSSYLHWYQQKPGQAPRLWIYSTSNRATGIPDRFSGSGSGTDFTLTISRLEPEDFATYYCQQFQSSPLTFGQGTKLEIK = 18.4
humanized anti-IL-36R antibody 900527 (antibody, V domains shown, IgG1 (human IgG1 L234A/L235A, human kappa); also called HB0034) VH: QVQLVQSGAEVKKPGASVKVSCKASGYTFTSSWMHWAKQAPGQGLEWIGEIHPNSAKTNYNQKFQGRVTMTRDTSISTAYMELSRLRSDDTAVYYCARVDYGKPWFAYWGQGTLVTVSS VL: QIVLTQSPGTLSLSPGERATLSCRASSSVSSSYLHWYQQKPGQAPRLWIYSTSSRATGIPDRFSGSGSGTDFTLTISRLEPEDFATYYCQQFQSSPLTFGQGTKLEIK = 17.4
humanized anti-IL-36R antibody 900534 (antibody, V domains shown, IgG1 (human IgG1 L234A/L235A, human kappa)) VH: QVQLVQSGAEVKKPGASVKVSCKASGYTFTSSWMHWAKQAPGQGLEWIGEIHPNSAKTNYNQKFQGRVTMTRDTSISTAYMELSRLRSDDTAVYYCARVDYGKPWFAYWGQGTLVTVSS VL: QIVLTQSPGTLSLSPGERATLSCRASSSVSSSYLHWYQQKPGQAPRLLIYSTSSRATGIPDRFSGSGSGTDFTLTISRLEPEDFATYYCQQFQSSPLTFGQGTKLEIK = 18.6

Now for a further binder.
The recorded IC50, GM-CSF release under IL-36 β stimulation (NCI/ADR-RES cells) for anti-IL-36R chimeric antibody 900497 (antibody, V domains shown, Human-mouse chimera: human IgG1 heavy-chain constant region with L234A and L235A (Eu numbering), human kappa constant region) VH: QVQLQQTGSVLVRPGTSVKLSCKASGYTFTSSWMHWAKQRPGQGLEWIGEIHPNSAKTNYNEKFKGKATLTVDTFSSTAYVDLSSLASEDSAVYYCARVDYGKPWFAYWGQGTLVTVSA VL: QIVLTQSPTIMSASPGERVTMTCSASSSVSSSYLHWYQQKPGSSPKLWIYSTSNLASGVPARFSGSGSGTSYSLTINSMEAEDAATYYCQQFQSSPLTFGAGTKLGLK is 22.4
